Read-out: 3-Hydroxy-3-Methylglutaryl-CoA Synthase 2 (HMGCS2), HMGCS2 (gene 3158)
METHOD: LTEA_HepaRG_HMGCS2: Life Technologies and Expression Analysis (LTEA) Assay for 3-Hydroxy-3-Methylglutaryl-CoA Synthase 2 (HMGCS2) using HepaRG (AID 2283504)
MEASUREMENT CONDITIONS: mRNA level, 48 h; actives raise or lower the signal
Activity calls are given as the source filed them. Rule for the calls: active = hit-call score of the fitted dose curve at least 0.9, where 1 is the maximum; inactive = score below 0.9.
Labels: active, inactive

>>> label_value("O=C=NCCCCCCN=C=O")
"inactive"
>>> label_value("CCCCCCCCCC(=O)O")
"inactive"
>>> label_value("CCO[Si](CCCNC(N)=O)(OCC)OCC")
"inactive"
>>> label_value("COc1cccc([C@H](O)C2CCN(CCc3ccc(F)cc3)CC2)c1OC")
"inactive"
>>> label_value("Cc1ccc(C(C)C)cc1")
"inactive"
>>> label_value("CC(C)(C)c1csc(-c2cc3cc(OCc4ccccc4CC(=O)O)ccc3o2)n1")
"active"
>>> label_value("CCCCCCCCOc1ccc(C(=O)c2ccccc2)c(O)c1")
"inactive"
>>> label_value("C[C@]12CC[C@@H]3c4ccc(O)cc4CC[C@H]3[C@@H]1CC[C@H]2O")
"active"
>>> label_value("Cc1c2ccccc2c(C)c2c1ccc1ccccc12")
"active"
>>> label_value("O=c1[nH]sc2ccccc12")
"inactive"
>>> label_value("CC(C)(c1cc(Br)c(O)c(Br)c1)c1cc(Br)c(O)c(Br)c1")
"active"
>>> label_value("Cc1ncc(CO)c(CO)c1O")
"inactive"
>>> label_value("CCCCCCCCOC(=O)c1cc(O)c(O)c(O)c1")
"inactive"

###

TARGET OF ASSAY: rat Opioid Receptor, Non-selective Binding, Oprm1 (gene 25601) (UniProt P33535)
Sequence (P33535 whole entry, looked up): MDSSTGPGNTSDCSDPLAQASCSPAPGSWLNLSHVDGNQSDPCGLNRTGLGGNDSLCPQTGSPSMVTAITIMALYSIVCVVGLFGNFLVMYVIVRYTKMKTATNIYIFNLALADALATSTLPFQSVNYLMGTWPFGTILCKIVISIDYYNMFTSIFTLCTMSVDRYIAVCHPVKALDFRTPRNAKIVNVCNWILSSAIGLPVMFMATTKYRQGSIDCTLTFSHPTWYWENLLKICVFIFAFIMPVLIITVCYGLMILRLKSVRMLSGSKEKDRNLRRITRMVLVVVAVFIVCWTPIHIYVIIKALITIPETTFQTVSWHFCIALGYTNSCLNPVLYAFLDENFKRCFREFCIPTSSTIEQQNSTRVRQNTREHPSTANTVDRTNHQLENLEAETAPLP
METHOD: NVS_GPCR_rOpiate_NonSelective: NovaScreen (NVS) G Protein-Coupled Receptor Assay for rat Opioid Receptor, Non-selective Binding (AID 2283318)
Records with an inconclusive call do not appear. Active and inactive are the calls of the source. How the source made its calls: active means hit-call score of the fitted dose curve at least 0.9, where 1 is the maximum; inconclusive means response in the unintended direction; inactive means score below 0.9.
Labels: true (1) for active, false (0) for inactive

>>> label_value("c1ccc(C[n+]2cccc3ccccc32)cc1")
"true (1)"
>>> label_value("CCN(CC)C(=O)c1cc(S(=O)(=O)Cc2ccccc2)c(N2CCC(c3ccccc3)CC2)cc1N(CC)CCN(C)C")
"false (0)"
>>> label_value("O=C(O)Cc1cc(I)c(Oc2ccc(O)c(I)c2)c(I)c1")
"false (0)"
>>> label_value("O=C1c2ccccc2C(=O)N1CCc1noc(-c2ccc(CN3CCCCCC3)s2)n1")
"true (1)"
>>> label_value("CN(C)c1ccc(C(=C2C=CC(=[N+](C)C)C=C2)c2ccc(N(C)C)cc2)cc1")
"true (1)"
>>> label_value("Clc1cc(Cl)c2c(c1)N=C1CCCCCN1C2")
"true (1)"
>>> label_value("CN(C)C(=O)C1(N2CCCCC2)CCN(CC[C@@]2(c3ccc(Cl)c(Cl)c3)CN(C(=O)c3ccccc3)CCO2)CC1")
"true (1)"
>>> label_value("O=c1[nH]sc2ccccc12")
"true (1)"
>>> label_value("CCN(Cc1cccnc1)C(=O)c1cccc(Cl)c1[C@]1(C)C(=O)N(Cc2ccc(OC)cc2OC)c2ccc(Cl)cc21")
"true (1)"

###

METHOD: APR_HepG2_p53Act_72hr: Apredica 72-hour HepG2 Assay for p53 Activation (AID 2282923);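 note: average cellular p53 protein immunofluorescence intensity in HepG2 cells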
MEASUREMENT CONDITIONS: high-content imaging, actives raise or lower the signal
Active and inactive are the calls of the source. How the source made its calls: active means hit-call score of the fitted dose curve at least 0.9, where 1 is the maximum; inactive means score below 0.9.
Labels: active, inactive

>>> label_value("COc1cccc([C@H](O)C2CCN(CCc3ccc(F)cc3)CC2)c1OC")
"inactive"
>>> label_value("CC(C)(O)c1ccc(CNC(=O)c2cccnc2Oc2ccc3nonc3c2)cc1")
"inactive"
>>> label_value("O=c1c(-c2ccc(O)cc2)coc2cc(O)cc(O)c12")
"active"
>>> label_value("O=C(O)c1ccccc1-n1cc(C(=O)O)c(=O)c2cc(Nc3c(F)cc(F)cc3Cl)c(Cl)cc21")
"inactive"
>>> label_value("O=CCCCC=O")
"inactive"
>>> label_value("CCCCCCCCCCCO")
"inactive"
>>> label_value("CCCCCCCCCCCCO")
"inactive"
>>> label_value("Cc1c2ccccc2c(C)c2c1ccc1ccccc12")
"active"
>>> label_value("CN1C(=O)CC[C@H]1c1cccnc1")
"inactive"
>>> label_value("O=C(OCCCCCCOC(=O)c1ccccc1)c1ccccc1")
"inactive"
>>> label_value("Cc1cn([C@H]2C[C@H](N=[N+]=[N-])[C@@H](CO)O2)c(=O)[nH]c1=O")
"inactive"
>>> label_value("CC(=O)N1CCN(c2ccc(OC[C@H]3CO[C@](Cn4ccnc4)(c4ccc(Cl)cc4Cl)O3)cc2)CC1")
"active"

###

METHOD: Tanguay_ZF_120hpf_YSE_legacy: (Legacy) Oregon State University Tanguay Lab 120 Hour Post-fertilization zebrafish Assay for Yolk Sac Edema (AID 2283634)
Inconclusive results are not listed. The source made the active and inactive calls. How the source made its calls: active means hit-call score of the fitted dose curve at least 0.9, where 1 is the maximum; inconclusive means response in the unintended direction; inactive means score below 0.9.
Labels: yes (1) = active, no (0) = inactive

>>> label_value("COc1ccc2cc(S(=O)(=O)N[C@H](CC(=O)N[C@H](Cc3ccc(CN4[C@H](C)CCC[C@@H]4C)cc3)C(=O)N(C)C(C)C)c3ccc4c(c3)OCO4)ccc2c1")
"no (0)"
>>> label_value("CCCCCCCCOC(=O)c1cc(O)c(O)c(O)c1")
"no (0)"
>>> label_value("O=c1c(-c2ccc(O)cc2)coc2cc(O)cc(O)c12")
"no (0)"
>>> label_value("Oc1ccccc1")
"no (0)"
>>> label_value("Oc1ccc2ccccc2c1")
"yes (1)"
>>> label_value("CCCCOC(=O)c1ccc(O)cc1")
"yes (1)"
>>> label_value("CCOC(=O)O[C@H](C)OC(=O)c1ccc2c(c1)cc(C(=O)NC1CCN(C(C)C)CC1)n2Cc1cc(-c2ccc(Cl)s2)on1")
"no (0)"
>>> label_value("Clc1cc(Cl)c2c(c1)N=C1CCCCCN1C2")
"yes (1)"
>>> label_value("CCCOC(=O)c1cc(O)c(O)c(O)c1")
"no (0)"
>>> label_value("c1ccc2n[nH]nc2c1")
"no (0)"
>>> label_value("Cc1oc2c(NC(=O)c3c(Cl)cccc3Cl)cccc2c1C(C)(C)O")
"no (0)"
>>> label_value("O=C1CCC(C2CCCCC2)CC1")
"no (0)"
>>> label_value("Cc1cc(F)ccc1-c1cc(N2CC[C@@H](O)[C@H]2CO)ncc1N(C)C(=O)C(C)(C)c1cc(C(F)(F)F)cc(C(F)(F)F)c1")
"no (0)"
>>> label_value("CCN(CC)C(=O)c1cc(S(=O)(=O)Cc2ccccc2)c(N2CCC(c3ccccc3)CC2)cc1N(CC)CCN(C)C")
"no (0)"
>>> label_value("OCCO")
"no (0)"
>>> label_value("O=CCCCC=O")
"no (0)"
>>> label_value("c1ccc(C[n+]2cccc3ccccc32)cc1")
"no (0)"
>>> label_value("O=C(O)c1ccccc1C(=O)OCc1ccccc1")
"no (0)"
>>> label_value("CN(C)C(=O)C1(N2CCCCC2)CCN(CC[C@@]2(c3ccc(Cl)c(Cl)c3)CN(C(=O)c3ccccc3)CCO2)CC1")
"no (0)"
>>> label_value("COc1cccc([C@H](O)C2CCN(CCc3ccc(F)cc3)CC2)c1OC")
"yes (1)"
>>> label_value("NC(=O)c1nc(-c2cccc(-c3cc(F)ccc3OCC(F)(F)C(F)(F)F)c2)n[nH]1")
"yes (1)"
>>> label_value("C[C@]12CC[C@@H]3c4ccc(O)cc4CC[C@H]3[C@@H]1CCC2=O")
"no (0)"
>>> label_value("O=C(Nc1ccc(Cl)cc1)Nc1ccc(Cl)c(Cl)c1")
"no (0)"

###

Tested on: Thyroperoxidase (TPO), gene 54314
METHOD: CCTE_Simmons_AUR_rTPO: CCTE's Amplex UltraRed Assay for Thyroperoxidase (TPO) Inhibition, Simmons Lab (AID 2283662)
Activity calls are given as the source filed them. Rule for the calls: active = hit-call score of the fitted dose curve at least 0.9, where 1 is the maximum; inconclusive = response in the unintended direction; inactive = score below 0.9.
Labels: active, inactive

>>> label_value("CN(C)c1ccc(C(=C2C=CC(=[N+](C)C)C=C2)c2ccc(N(C)C)cc2)cc1")
"active"
>>> label_value("CO[C@H]1/C=C/O[C@@]2(C)Oc3c(C)c(O)c4c(O)c(c(/C=N/N5CCN(C)CC5)c(O)c4c3C2=O)NC(=O)/C(C)=C\\C=C\\[C@H](C)[C@H](O)[C@@H](C)[C@@H](O)[C@@H](C)[C@H](OC(C)=O)[C@@H]1C")
"active"
>>> label_value("CCCCCc1ccc(N)cc1")
"active"
>>> label_value("CC(C)(c1cc(Br)c(O)c(Br)c1)c1cc(Br)c(O)c(Br)c1")
"active"
>>> label_value("O=C(O)Cc1cc(I)c(Oc2ccc(O)c(I)c2)c(I)c1")
"active"
>>> label_value("Cc1c2ccccc2c(C)c2c1ccc1ccccc12")
"inactive"
>>> label_value("CC(C)(C)c1csc(-c2cc3cc(OCc4ccccc4CC(=O)O)ccc3o2)n1")
"active"
>>> label_value("CCN(Cc1cccc(S(=O)(=O)O)c1)c1ccc(C(=C2C=CC(=[N+](CC)Cc3cccc(S(=O)(=O)O)c3)C=C2)c2ccccc2S(=O)(=O)[O-])cc1")
"active"
>>> label_value("CCOC(=O)O[C@H](C)OC(=O)c1ccc2c(c1)cc(C(=O)NC1CCN(C(C)C)CC1)n2Cc1cc(-c2ccc(Cl)s2)on1")
"active"
>>> label_value("O=C1CCC(C2CCCCC2)CC1")
"inactive"
>>> label_value("COc1cc(C(=O)NC2CCN(C)CC2)ccc1Nc1ncc2c(n1)N(C1CCCC1)CC(F)(F)C(=O)N2C")
"active"
